Listed below: mass density values for each entry.
measurement_conditions: 288.15 K; 101.33 kPa; Liquid; Vibrating tube method

| molecule | mass density (kg/m3) |
| --- | --- |
| CC[NH+](C)CC.O=S(=O)([O-])C(F)(F)F [diethylmethylammonium trifluoromethanesulfonate] | 1299 |
| C=CC[NH+](C)CC=C.O=S(=O)([O-])C(F)(F)F | 1268 |
| C=CC[NH+](CC)CC.O=S(=O)([O-])C(F)(F)F [N,N-diethylprop-2-en-1-aminium trifluoromethanesulfonate] | 1270 |
| CCC[NH+](CC)CC.O=S(=O)([O-])C(F)(F)F [N,N-diethylpropan-1-aminium trifluoromethanesulfonate] | 1237 |
| C=CC[NH+](C)C.O=S(=O)([O-])C(F)(F)F [N,N-dimethylprop-2-en-1-aminium trifluoromethanesulfonate] | 1318 |
| CCC[NH+](C)C.O=S(=O)([O-])C(F)(F)F [N,N-dimethylpropan-1-aminium trifluoromethanesulfonate] | 1291 |

* * *

measurement_conditions: 323.15 K; 101.33 kPa; Liquid

| molecule | electrical conductivity (S/m) |
| --- | --- |
| CCC[NH+](CC)CC.O=S(=O)([O-])C(F)(F)F [N,N-diethylpropan-1-aminium trifluoromethanesulfonate] | 0.71 |
| C=CC[NH+](CC)CC.O=S(=O)([O-])C(F)(F)F [N,N-diethylprop-2-en-1-aminium trifluoromethanesulfonate] | 0.785 |
| CCC[NH+](C)CCC.O=S(=O)([O-])C(F)(F)F [N-methyl-N-propylpropan-1-aminium trifluoromethanesulfonate] | 0.772 |
| C=CC[NH+](C)C.O=S(=O)([O-])C(F)(F)F [N,N-dimethylprop-2-en-1-aminium trifluoromethanesulfonate] | 1.74 |
| C=CC[NH+](C)CC=C.O=S(=O)([O-])C(F)(F)F | 0.893 |
| CCC[NH+](C)C.O=S(=O)([O-])C(F)(F)F [N,N-dimethylpropan-1-aminium trifluoromethanesulfonate] | 1.57 |
| CC[NH+](C)CC.O=S(=O)([O-])C(F)(F)F [diethylmethylammonium trifluoromethanesulfonate] | 1.45 |

* * *

Listed below: viscosity values for each entry.
measurement_conditions: 303.15 K; 101.33 kPa; Liquid; Concentric cylinders viscometry
Numbers after ± are expanded uncertainties.

| compound | viscosity |
| --- | --- |
| C=CC[NH+](C)CC=C.O=S(=O)([O-])C(F)(F)F | 38.5 ± 1.3 mPa·s |
| CCC[NH+](CC)CC.O=S(=O)([O-])C(F)(F)F [N,N-diethylpropan-1-aminium trifluoromethanesulfonate] | 54.3 ± 1.8 mPa·s |
| CCC[NH+](C)CCC.O=S(=O)([O-])C(F)(F)F [N-methyl-N-propylpropan-1-aminium trifluoromethanesulfonate] | 48.7 ± 1.6 mPa·s |

* * *

Listed below: electrical conductivity values for each entry.
measurement_conditions: 363.15 K; 101.33 kPa; Liquid
value_type: electrical conductivity (S/m)

| compound | observed_measurement |
| --- | --- |
| CC[NH+](C)CC.O=S(=O)([O-])C(F)(F)F [diethylmethylammonium trifluoromethanesulfonate] | 3.15 |
| C=CC[NH+](C)CC=C.O=S(=O)([O-])C(F)(F)F | 2.06 |
| C=CC[NH+](CC)CC.O=S(=O)([O-])C(F)(F)F [N,N-diethylprop-2-en-1-aminium trifluoromethanesulfonate] | 1.81 |
| CCC[NH+](C)CCC.O=S(=O)([O-])C(F)(F)F [N-methyl-N-propylpropan-1-aminium trifluoromethanesulfonate] | 1.81 |
